# Tested on: Pseudomonas aeruginosa
# test: Antimicrobial activity was determined against Pseudomonas aeruginosa ATCC 27853 cells
# Type: functional
This section presents compounds with their documented MIC values.

Some solved cases for reference:
COC(=O)c1nc(C(C)=O)c2[nH]c3ccccc3c2c1C ... > 50 µg/mL
COC(=O)c1nc(C(=O)OC)c(N)c(-c2ccc(OC)c(OC)c2O)c1C ... > 50 µg/mL
COC(=O)c1nc(-c2ccc3c(n2)C(=O)C(=N)C(OC)=C3O)c(N)c(-c2ccc(OC)c(OC)c2O)c1C ... > 100 µg/mL
NC1=CC(=O)c2ccc(-c3cc(C(=O)O)ccc3N)nc2C1=O ... > 50 µg/mL
NC1=CC(=O)c2ccc(-c3cccc(C(=O)O)n3)nc2C1=O ... > 50 µg/mL

Which value of MIC has been reported for COC(=O)c1[nH]c(C(=O)OC)c(C)c2c3ccccc3nc1-2 in the records?
> 50 µg/mL

Recorded MIC for COC(=O)c1ccc(N)c(-c2ccc3c(n2)C(=O)C(=N)C=C3O)c1 , please?
> 50 µg/mL

What measured MIC goes with COC1=C(N)C(=O)c2ncccc2C1=O ?
> 100 µg/mL

What does the data say about its MIC? Entry: COC(=O)c1cccc(-c2ccc3c(n2)C(=O)C(=N)C=C3O)n1
> 50 µg/mL

Item NC1=CC(=O)c2cccnc2C1=O has what recorded MIC?
> 100 µg/mL

Tell me the measured MIC of COC1=C(N)C(=O)c2nc(-c3ccccn3)ccc2C1=O , please.
> 100 µg/mL

Which MIC reading was recorded for the compound COC1=C(N)C(=O)c2nc(-c3nc(C(=O)O)c(C)c(-c4ccc(OC)c(OC)c4O)c3N)ccc2C1=O ?
6.25 µg/mL

Item NC1=CC(=O)c2ccc(-c3ccccn3)nc2C1=O has what recorded MIC?
> 100 µg/mL

Sourced from ChEMBL document CHEMBL1123628
